Entries and their MIC values follow.
# Test system: Streptococcus pneumoniae
# experimental_details: Antibacterial activity against Streptococcus pneumoniae HMC 1062 harboring S81F mutation in quinolone-resistant determining regions of GyrA gene, S79F mutation in QRDR of ParC gene and I460V mutation in QRDR of ParE gene by agar dilution method
# Assay type: functional

- compound: "CO/N=C1\\CN(c2nc3c(cc2F)c(=O)c(C(=O)O)cn3C2CC2)CC1CN (stereo not given) [GEMIFLOXACIN]"
  reported_value: "1 µg/mL"
- compound: "O=C(O)c1cn(C2CC2)c2cc(N3CCNCC3)c(F)cc2c1=O [CIPROFLOXACIN]"
  reported_value: "> 32 µg/mL"
- compound: "COc1c(N2CC3(CC3)[C@](C)(N)C2)c(F)cc2c(=O)c(C(=O)O)cn([C@@H]3C[C@@H]3F)c12.O"
  reported_value: "1 µg/mL"
- compound: "COc1c(N2CCNC(C)C2)c(F)cc2c(=O)c(C(=O)O)cn(C3CC3)c12 (stereo not given) [GATIFLOXACIN]"
  reported_value: "16 µg/mL"

Lab note: next compound to report on.
MIC recorded for this compound, COc1c(N2C[C@@H]3CCCN[C@@H]3C2)c(F)cc2c(=O)c(C(=O)O)cn(C3CC3)c12 [MOXIFLOXACIN] , is 4 µg/mL

----------
# Tested on: Streptococcus pneumoniae
# experimental_details: Antibacterial activity against penicillin-, quinolone-resistant Streptococcus pneumoniae HMC 1541 harboring mutation in L4 protein by broth microdilution method
# Format: functional
Listed next: entries and their corresponding MIC.
Write it as a number; the unit µg/mL goes unstated.

- compound: "COc1c(N2CCNC(C)C2)c(F)cc2c(=O)c(C(=O)O)cn(C3CC3)c12 (stereo not given) [GATIFLOXACIN]"
  MIC (µg/mL): 4
- compound: "CO/N=C1\\CN(c2nc3c(cc2F)c(=O)c(C(=O)O)cn3C2CC2)CC1CN (stereo not given) [GEMIFLOXACIN]"
  MIC (µg/mL): 0.5
- compound: "COc1c(N2C[C@@H]3CCCN[C@@H]3C2)c(F)cc2c(=O)c(C(=O)O)cn(C3CC3)c12 [MOXIFLOXACIN]"
  MIC (µg/mL): 4

Looking up COc1c(N2CC3(CC3)[C@](C)(N)C2)c(F)cc2c(=O)c(C(=O)O)cn([C@@H]3C[C@@H]3F)c12.O , I see its MIC listed as 1

----------
# maps each entry to its MIC90
# Test system: Streptococcus pneumoniae
# experimental_details: Antibacterial activity against azithromycin-susceptible Streptococcus pneumoniae ATCC 49619 by agar dilution method
# Format: functional
Give a bare numeral; the unit µg/mL is implied.

Response field MIC90 (Streptococcus pneumoniae) for item CO/N=C1\CN(c2nc3c(cc2F)c(=O)c(C(=O)O)cn3C2CC2)CC1CN (configuration not stated) : 0.25

I looked up CC1(C)S[C@@H]2[C@H](NC(=O)Cc3ccccc3)C(=O)N2[C@H]1C(=O)O and its MIC90 for Streptococcus pneumoniae was 2

Entry C[C@H]1COc2c(N3CCN(C)CC3)c(F)cc3c(=O)c(C(=O)O)cn1c23.C[C@H]1COc2c(N3CCN(C)CC3)c(F)cc3c(=O)c(C(=O)O)cn1c23.O : MIC90 on Streptococcus pneumoniae = 8

Entry COc1c(N2CCNC(C)C2)c(F)cc2c(=O)c(C(=O)O)cn(C3CC3)c12 (configuration not stated) under Streptococcus pneumoniae had MIC90 of 4

Log: Streptococcus pneumoniae, compound COc1c(N2CC3(CC3)[C@](C)(N)C2)c(F)cc2c(=O)c(C(=O)O)cn([C@@H]3C[C@@H]3F)c12.O , MIC90 = 0.5

Here CC[C@H]1OC(=O)[C@H](C)C(=O)[C@H](C)[C@@H](O[C@@H]2O[C@H](C)C[C@H](N(C)C)[C@H]2O)[C@](C)(OC)C[C@@H](C)C(=O)[C@H](C)[C@H]2N(CCCCn3cnc(-c4cccnc4)c3)C(=O)O[C@]12C was tested on Streptococcus pneumoniae, and its MIC90 came to 0.03

Form: item CC[C@H]1OC(=O)[C@H](C)[C@@H](O[C@H]2C[C@@](C)(OC)[C@@H](O)[C@H](C)O2)[C@H](C)[C@@H](O[C@@H]2O[C@H](C)C[C@H](N(C)C)[C@H]2O)[C@](C)(O)C[C@@H](C)CN(C)[C@H](C)[C@@H](O)[C@]1(C)O ; test system Streptococcus pneumoniae; MIC90: 0.12

This collection of values is drawn from ChEMBL document CHEMBL1151449.
